- Test method notes: self-splicing fitness, log relative to wild type (ln ratio); higher = more splicing; Tetrahymena group I intron in knt gene, E. coli kanamycin selection, DiMSum; sequences stand for … in CUCUCU…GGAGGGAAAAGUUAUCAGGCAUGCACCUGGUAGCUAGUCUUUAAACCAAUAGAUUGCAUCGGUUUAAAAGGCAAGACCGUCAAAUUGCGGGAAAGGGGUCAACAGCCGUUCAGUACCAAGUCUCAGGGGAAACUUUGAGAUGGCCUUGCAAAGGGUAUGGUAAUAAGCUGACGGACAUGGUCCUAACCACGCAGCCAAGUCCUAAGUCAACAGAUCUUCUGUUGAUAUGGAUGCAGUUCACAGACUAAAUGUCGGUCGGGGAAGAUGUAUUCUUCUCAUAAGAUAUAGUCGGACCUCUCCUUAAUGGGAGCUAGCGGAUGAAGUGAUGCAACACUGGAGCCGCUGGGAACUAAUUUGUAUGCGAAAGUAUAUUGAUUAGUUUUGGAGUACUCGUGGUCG;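 note: selection with 25 µg/mL kanamycin versus none on LB agar overnight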
- Details: 30 °C
Exercise: state measured self-splicing fitness (ln) for each of the sequences provided.
Please give only the number in your answer, with no unit.

Fill blank: measured self-splicing fitness (ln) of the sequence `CAAGAGCAAUAUUACGAAAC` is ____.
-2.91

Value lookup for self-splicing fitness (ln); key = `GGCCAGCAAUAUUACGUCAU`
-1.7

Give its self-splicing fitness (ln) value. Item: `AGAUAGCAAUAUUACGCUGU`
-3.36

What self-splicing fitness (ln) value was documented for this sequence, `AACAAGCAAUAUUACGACAU` ?
-0.261

# input sequence: `UCUAAGCAAUAUUACGGCCG` ; wanted: its self-splicing fitness (ln)
-1.36

What value of self-splicing fitness (ln) has been reported for the following sequence? `AUGAAGCAAUAUUACGUAAU`
-1.57

Return reported self-splicing fitness (ln); argument: `GUACAGCAAUAUUACGUCCG`
-3.2

What value of measured self-splicing fitness (ln) is listed for `CCCGAGCAAUAUUACGGCUG` ?
-4.35

Bench note: what self-splicing fitness (ln) did `UUUCAGCAAUAUUACGCCUG` show?
-1.95

// returns reported self-splicing fitness (ln) for input `CGCCAGCAAUAUUACGAAAA`
-3.4

Could you tell me which self-splicing fitness (ln) is on file for `GUAAAGCAAUAUUACGAAAG` ?
-2.91

I would be grateful if you could share the reported self-splicing fitness (ln) for `GUGGAGCAAUAUUACGUUUC` .
-3.39

Value lookup for self-splicing fitness (ln); key = `AGUUAGCAAUAUUACGUAGA`
-3.12

Suppose we examine the sequence `AGGGAGCAAUAUUACGUGAU` ; what self-splicing fitness (ln) value has been reported?
-3.34

Returns the measured self-splicing fitness (ln) for the input sequence. Input: `UGUAAGCAAUAUUACGUAAU`
-2.84

Fill blank: measured self-splicing fitness (ln) of the sequence `UCUCAGCAAUAUUACGACUC` is ____.
-3.38

// query self-splicing fitness (ln) value for entry `CUAUAGCAAUAUUACGAACA`
-2.76

# self-splicing fitness (ln) lookup, item `ACCAAGCAAUAUUACGGUUA`
-1.63

What measured self-splicing fitness (ln) goes with `GGUUAGCAAUAUUACGUCAA` ?
-0.285

Data request, read-out self-splicing fitness (ln), for `UUACAGCAAUAUUACGCAAC`
-3.55

Entry under review: `CCCAAGCAAUAUUACGGGAC` . Reported self-splicing fitness (ln)?
-4.01

Given the sequence `UUCAAGCAAUAUUACGCUUU` , what is its reported self-splicing fitness (ln)?
-5.08

Recorded self-splicing fitness (ln) of `UCUUAGCAAUAUUACGGUAA` , please.
-2.62

Please look up its self-splicing fitness (ln): `AGUCAGCAAUAUUACGGAUG`
-1.36

GET /values?readout=self-splicing fitness (ln)&item= `AUCCAGCAAUAUUACGAUGU`
-0.743
